biological target: T1, human serum albumin (human, UniProt P02768 25-609); test: SPR Biacore 8K+ SCK, albumin on chip, pH 7.4
T1 construct: Immobilised on SPR chips; also added in solution in the FcRn occupancy assays; also called HSA; humanSA
pKd: −log10 of the molar value.
pKd reference
EXPERIMENTAL_ENDPOINT: pKd

INSERT INTO assay_data (binder, number) VALUES
  ('Alb23 R104A (VHH, VHH alone) VHH: EVQLLESGGGLVQPGGSLRLSCAASGFTFRSFGMSWVRQAPGKGPEWVSSISGSGSDTLYADSVKGRFTISRDNSKNTLYLQMNSLRPEDTAVYYCTIGGSLSASSQGTLVTVSS', 8.34),
  ('Alb23 M34A (VHH, VHH alone) VHH: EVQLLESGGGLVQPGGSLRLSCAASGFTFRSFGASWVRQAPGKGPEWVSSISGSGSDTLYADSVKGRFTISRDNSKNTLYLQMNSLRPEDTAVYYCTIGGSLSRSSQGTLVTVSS', 6.76),
  ('Alb23 D62A (VHH, VHH alone) VHH: EVQLLESGGGLVQPGGSLRLSCAASGFTFRSFGMSWVRQAPGKGPEWVSSISGSGSDTLYAASVKGRFTISRDNSKNTLYLQMNSLRPEDTAVYYCTIGGSLSRSSQGTLVTVSS', 8.51),
  ('Alb23 D57A (VHH, VHH alone) VHH: EVQLLESGGGLVQPGGSLRLSCAASGFTFRSFGMSWVRQAPGKGPEWVSSISGSGSATLYADSVKGRFTISRDNSKNTLYLQMNSLRPEDTAVYYCTIGGSLSRSSQGTLVTVSS', 8.25),
  ('Alb23 Y60A (VHH, VHH alone) VHH: EVQLLESGGGLVQPGGSLRLSCAASGFTFRSFGMSWVRQAPGKGPEWVSSISGSGSDTLAADSVKGRFTISRDNSKNTLYLQMNSLRPEDTAVYYCTIGGSLSRSSQGTLVTVSS', 8.37),
  ('Alb23 G99A (VHH, VHH alone) VHH: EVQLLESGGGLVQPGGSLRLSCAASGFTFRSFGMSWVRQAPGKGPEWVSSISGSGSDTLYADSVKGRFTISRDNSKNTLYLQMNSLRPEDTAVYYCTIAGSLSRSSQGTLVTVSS', 7.00),
  ('Alb23 G33A/S101A (VHH, VHH alone) VHH: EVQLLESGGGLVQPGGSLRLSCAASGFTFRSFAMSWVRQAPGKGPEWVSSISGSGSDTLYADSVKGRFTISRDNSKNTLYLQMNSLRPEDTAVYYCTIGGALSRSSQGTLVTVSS', 6.94),
  ('Alb23 S35A (VHH, VHH alone) VHH: EVQLLESGGGLVQPGGSLRLSCAASGFTFRSFGMAWVRQAPGKGPEWVSSISGSGSDTLYADSVKGRFTISRDNSKNTLYLQMNSLRPEDTAVYYCTIGGSLSRSSQGTLVTVSS', 8.31),
  ('Alb23 G100A (VHH, VHH alone) VHH: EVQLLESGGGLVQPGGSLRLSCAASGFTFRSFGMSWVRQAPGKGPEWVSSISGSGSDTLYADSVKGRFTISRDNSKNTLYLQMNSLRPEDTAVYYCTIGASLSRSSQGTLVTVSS', 7.51),
  ('Alb23 I51A (VHH, VHH alone) VHH: EVQLLESGGGLVQPGGSLRLSCAASGFTFRSFGMSWVRQAPGKGPEWVSSASGSGSDTLYADSVKGRFTISRDNSKNTLYLQMNSLRPEDTAVYYCTIGGSLSRSSQGTLVTVSS', 8.29),
  ('Alb23 (VHH, VHH alone, injected in solution; also called VHH-Alb23_Parental (#1); Alb23 parental) VHH: EVQLLESGGGLVQPGGSLRLSCAASGFTFRSFGMSWVRQAPGKGPEWVSSISGSGSDTLYADSVKGRFTISRDNSKNTLYLQMNSLRPEDTAVYYCTIGGSLSRSSQGTLVTVSS', 8.63),
  ('Alb23 S103A (VHH, VHH alone) VHH: EVQLLESGGGLVQPGGSLRLSCAASGFTFRSFGMSWVRQAPGKGPEWVSSISGSGSDTLYADSVKGRFTISRDNSKNTLYLQMNSLRPEDTAVYYCTIGGSLARSSQGTLVTVSS', 8.41),
  ('Alb23 S54A (VHH, VHH alone) VHH: EVQLLESGGGLVQPGGSLRLSCAASGFTFRSFGMSWVRQAPGKGPEWVSSISGAGSDTLYADSVKGRFTISRDNSKNTLYLQMNSLRPEDTAVYYCTIGGSLSRSSQGTLVTVSS', 8.55);
